Test system: GT1a L159F NS5B mutant replicon
Assay: HCV NS5B mutant replicon assay, GT1a L159F
Assay type: cell-based
Settings: Hepatitis C virus, Huh-7, 72 h, read-out: GT1a L159F EC50
Method: The antiviral activity of the test compounds was assessed in the wild type GT1b (Con1), GT1a (H77), and GT1b/2a, GT1b/3a, GT1b/4a and GT1b/5a NS5B chimeric replicons, as well as the NS5B mutant replicons listed in Table 2a and 2b. The HCV replicon mutants were generated by site-directed mutagenesis (SDM). The SDM was performed by PCR and the PCR fragments were inserted into the backbone replicon construct. The inserted PCR fragments and the mutants were confirmed by sequencing. […]
pEC50 values, listed per item
Please treat pEC50 as minus the base-10 logarithm of the molar concentration.

The following compounds have reported results that may help.
compound	pEC50
CC(C)OC(=O)[C@H](C)N[P@](=O)(OC[C@H]1O[C@@H](n2ccc(=O)[nH]c2=O)[C@](C)(F)[C@@H]1O)Oc1ccccc1 [sofosbuvir, reference compound]	7.10
CC(C)(C)SSc1ccccc1CCOP1(=O)OC[C@H]2O[C@@H](n3ccc(=O)[nH]c3=O)[C@](C)(F)[C@@H]2O1 (single isomer, unassigned)	7.96

Let us move to another entry and its pEC50.
Query string: Param readout= pEC50; system= GT1a L159F NS5B mutant replicon; entry= CC(C)(C)SSc1ccccc1CCOP1(=O)OC[C@H]2O[C@@H](n3ccc(N)nc3=O)[C@](C)(F)[C@@H]2O1 (single isomer, unassigned) ; returns value.
Result string: 8.00

###

% Remaining values, listed per item
assay: Nucleoside phosphoester stability in simulated gastric fluid; type: in vitro ADME; details: simulated gastric fluid pH 1.2, 2 μM, 37° C., 360 min
Don't forget the unit after the number, please.

The following molecules have reported results that may help.
molecule	readout type	measured value
COc1ccc2[nH]c([S+]([O-])Cc3ncc(C)c(OC)c3C)nc2c1 (centres unmarked) [Omeprazole, reference compound]	% Remaining	6.17%
CC(C)(C)SSc1ccccc1CCOP1(=O)OC[C@H]2O[C@@H](n3ccc(N)nc3=O)[C@](C)(F)[C@@H]2O1 (single isomer, unassigned) [Compound 9B]	% Remaining	65.99%
CC(C)OC(=O)[C@H](C)N[P@](=O)(OC[C@H]1O[C@@H](n2ccc(=O)[nH]c2=O)[C@](C)(F)[C@@H]1O)Oc1ccccc1 [sofosbuvir, reference compound]	% Remaining	87.35%
CC(C)(C)SSc1ccccc1CCOP1(=O)OC[C@H]2O[C@@H](n3ccc(N)nc3=O)[C@](C)(F)[C@@H]2O1 (single isomer, unassigned) [Compound 9A]	% Remaining	91.06%

Let us move to another entry and its % Remaining.
Query string: Consider the molecule CC(C)(C)SSc1ccccc1CCOP1(=O)OC[C@H]2O[C@@H](n3ccc(=O)[nH]c3=O)[C@](C)(F)[C@@H]2O1 (single isomer, unassigned) and give its measured % Remaining.
Result string: 91.60%

###

EC50 values, listed per item
Test system: GT1b/2a NS5B chimeric replicon
Experiment: HCV replicon assay, GT1b/2a NS5B chimeric replicon, transient transfection
Assay type: cell-based, hepatitis C virus
Settings: Hepatitis C virus, Huh-7, 72 h, read-out: GT2a EC50, GT1b/2a NS5B chimeric replicon, Huh-7 cells, luciferase, 72 hours
Procedure: The antiviral activity of the test compounds was assessed in the wild type GT1b (Con1), GT1a (H77), and GT1b/2a, GT1b/3a, GT1b/4a and GT1b/5a NS5B chimeric replicons, as well as the NS5B mutant replicons listed in Table 2a and 2b. To generate HCV NS5B chimeric replicons, the GT1 b replicon was used as a backbone with the NS5B gene replaced with the NS5B gene of GT2a, GT3a, GT4a and GT5a derived from clinical isolates. […]
Your answer should be a plain number; it is taken to be in nM.

The following molecules have reported results that may help.
molecule	measured value
CC(C)OC(=O)[C@H](C)N[P@](=O)(OC[C@H]1O[C@@H](n2ccc(=O)[nH]c2=O)[C@](C)(F)[C@@H]1O)Oc1ccccc1 [sofosbuvir, reference compound]	36
CC(C)(C)SSc1ccccc1CCOP1(=O)OC[C@H]2O[C@@H](n3ccc(N)nc3=O)[C@](C)(F)[C@@H]2O1 (single isomer, unassigned)	3

Query string: Consider the molecule CC(C)(C)SSc1ccccc1CCOP1(=O)OC[C@H]2O[C@@H](n3ccc(=O)[nH]c3=O)[C@](C)(F)[C@@H]2O1 (single isomer, unassigned) and give its measured EC50.
Result string: 3

Each recorded value in this set is attributed to patent US20180346505A1.
